Hello, the source for this data is patent US20090311283A1, in case you need it.

Recorded binding affinity ratio (IC50 of standard peptide / IC50 of test peptide) by entry
biological target: HLA-A*0201 (human)
readout-name: binding affinity ratio (IC50 of standard peptide / IC50 of test peptide)

binder | result-value
YVPSALNPA (modifications not checked) [HBV POL 768 peptide …] | 0.0039
LIFLLVLL (modifications not checked) [HBV ENV 254 peptide LIFLLVLL] | 0.0025
LLDYQGML (modifications not checked) [HBV ENV 260 peptide LLDYQGML] | 0.0004
LLTRILTI (modifications not checked) [HBV ENV 184 peptide LLTRILTI] | 0.0026
WLSLDVSAA (modifications not checked) [HBV POL 414 9-mer peptide …] | 0.0059
WMCLRRFIIFL (modifications not checked) [HBV ENV 237 11-mer peptide …] | 0.0019
WLLGCAANWI (modifications not checked) [HBV POL 751 10-mer peptide …] | 0.0053
LLGCAANWI (modifications not checked) [HBV POL 752 peptide …] | 0.0011
